Assay: Cytotoxicity against human LOX cells after 2 days by XTT assay
Assay type: functional, cell-based
Details: 48 h
quantity-measured: IC50
Numeric answer plus unit only.

q: // returns reported IC50 for input `O=C1NCCc2cc(Br)c(O)c(c2)Oc2cc(O)c(cc2Br)CCNC(=O)/C(=N/O)Cc2c(O)cc(Br)c(c2Br)Oc2cc(cc(Br)c2O)C/C1=N\O`
a: 9.5 µM

* * *

Tested on: SNB-19
Experiment: Cytotoxicity against human SNB19 cells after 2 days by XTT assay
Format: functional, cell-based
Conditions: SNB-19, 48 h
quantity-measured: IC50 (µM)
Lab book: enter the figure in µM, no units written.

q: // returns reported IC50 for input O=C1NCCc2cc(Br)c(O)c(c2)Oc2cc(O)c(cc2Br)CCNC(=O)/C(=N/O)Cc2c(O)cc(Br)c(c2Br)Oc2cc(cc(Br)c2O)C/C1=N\O [LITHOTHAMNIN A]
a: 7.6
